Reported IC50 values are given for each entry in this list.
Tested on: Lectin Pathway
Test: Lectin Pathway Activation Assay in Human Serum (mannan-coated ELISA, C3c detection)
Type: biochemical
Conditions: 1% human serum

compound | IC50
C[C@H](NC(=O)[C@H](N)CCc1cccc(F)c1)C(=O)NCc1ccc(C(=N)N)cc1 | 50 to 5000 nM
N=C(N)c1ccc(CNC(=O)[C@@H]2CCN2C(=O)[C@H](N)CCc2ccccc2)cc1 | < 500 nM
N=C(N)c1ccc(CNC(=O)[C@@H]2CCN2C(=O)[C@H]2Cc3ccccc3CN2)cc1 | 500 to 50000 nM
C[C@H](NC(=O)[C@H](N)CCc1cccc(Cl)c1)C(=O)NCc1ccc(C(=N)N)cc1 | 50 to 5000 nM
C[C@@H](C(=O)NCc1ccc(C(=N)N)cc1)N(C)C(=O)[C@H](NCC(=O)O)C1CCCCC1 | 500 to 50000 nM
C[C@H](NC(=O)[C@H](N)Cc1cccc2ccccc12)C(=O)NCc1ccc(C(=N)N)cc1 | 50 to 5000 nM
C[C@H](NC(=O)[C@@H](CCc1ccccc1)NCC(=O)O)C(=O)NCc1ccc(C(=N)N)cc1 | < 500 nM
C[C@H](NC(=O)[C@H](N)CCc1ccc(F)cc1)C(=O)NCc1ccc(C(=N)N)cc1 | 50 to 5000 nM
C[C@H](NC(=O)[C@H](N)CCc1ccc(Cl)cc1)C(=O)NCc1ccc(C(=N)N)cc1 | 50 to 5000 nM
C[C@H](NC(=O)[C@H](N)C1Cc2ccccc2C1)C(=O)NCc1ccc2nc(N)[nH]c2c1 | 50 to 5000 nM
N=C(N)c1ccc(CNC(=O)[C@@H]2CCN2C(=O)[C@@H](CCc2ccccc2)NCC(=O)O)cc1 | < 500 nM
N=C(N)c1ccc(CNC(=O)[C@@H]2CCN2C(=O)[C@H](NCC(=O)O)C2CCCCC2)cc1 [compound 999, melagatran, reference compound] | 500 to 50000 nM
CN(CC(=O)NCc1ccc(C(=N)N)cc1)C(=O)[C@H](NCC(=O)O)C1CCCCC1 | 500 to 50000 nM
C[C@H](NC(=O)[C@H]1C[C@H](c2ccccc2)CN1)C(=O)NCc1ccc(C(=N)N)cc1 | < 500 nM
Cc1ccc(CC[C@@H](N)C(=O)N[C@@H](C)C(=O)NCc2ccc(C(=N)N)cc2)cc1 | 50 to 5000 nM
N=C(N)c1ccc(CNC(=O)[C@@H]2CCN2C(=O)[C@H](N)C2Cc3ccccc3C2)cc1 | 50 to 5000 nM
C[C@H](NC(=O)[C@H](N)CCc1ccccc1)C(=O)NCc1cccc(Cl)c1 | > 50000 nM
N=C(N)c1ccc(CNC(=O)[C@@H]2CCCN2C(=O)[C@H](N)C2CCCCC2)cc1 | 50 to 5000 nM
C[C@H](NC(=O)[C@H](N)CCc1ccccc1)C(=O)NCc1ccc(C(=N)N)cc1 | < 500 nM
